tested on: MS2 coat protein; assay: apparent KD of MS2 coat protein; designed switch direction (-1 OFF switch, 1 ON switch): -1; higher = weaker reporter binding; details: input ligand: microRNA oligo, concentration not stated
# label = Criterion met if apparent KD of MS2 coat protein >= 70 nM else Criterion not met

### Prompt Textbook exercise: given the entry GCACGAAGUGUAGGAUAUCUGUGCGAUUAGCUCAGAGAAGGACACAUGAGGAUCACCCAUGUGUUCCAAUCACAAAAUACGUGC [Eli exng1 - 060] (Eterna round: R96, puzzle: Exclusion NG 1) , state whether its apparent KD of MS2 coat protein is greater than or equal to 70 nM.
### Response Criterion not met

### Prompt Textbook exercise: given the entry UACGGUCCUAACAUGAGGAUCACCCAUGUAACAAAAGAAACCUAGGAUAUCCGCGCCGGAAGGAAGGAGAAGGAGGGCGUGGCA [Ededti] (Eterna round: R96, puzzle: Exclusion NG 3) , state whether its apparent KD of MS2 coat protein is greater than or equal to 70 nM.
### Response Criterion not met

### Prompt Textbook exercise: given the entry AUUGAUAGCACAGGAUAUUGAGAUUUGAAUUGACAAGAAGGGUGUACAUGAGGAUCACCCAUGUAAUGGUUGCCUCGUUGAUUA [JR_ExcNG1_Sub004] (Eterna round: R96, puzzle: Exclusion NG 1) , state whether its apparent KD of MS2 coat protein is greater than or equal to 70 nM.
### Response Criterion met

### Prompt Textbook exercise: given the entry CUUCACCCACCAGAGCUCACCCACAUACCUACUCAGGUGACAUGAGGAUCACCCAUGUUUUUUGCCCGUCUUAUCUU [Vexebedi] (Eterna round: R96, puzzle: Sensor v3, turn-off variant 2) , state whether its apparent KD of MS2 coat protein is greater than or equal to 70 nM.
### Response Criterion met

### Prompt Textbook exercise: given the entry AACCCUCGUCAAGGAUAUACAUAGAAAAGCUUGGUAGAAGGUGACAUGAGGAUCACCCAUGUAAAAGGCCUGUCCAUUCAGGCC [Isonce] (Eterna round: R96, puzzle: Exclusion NG 1) , state whether its apparent KD of MS2 coat protein is greater than or equal to 70 nM.
### Response Criterion not met

### Prompt Textbook exercise: given the entry AGAUCUAGGACAGGAUAUACUGAUGGCUUCAUCGAAGAUGAAGCCAUCACAUGAGGAUCACCCAUGUAGAAGGGUCCUAGAUCA [Omei Exc(NG) 2Av8] (Eterna round: R96, puzzle: Exclusion NG 2) , state whether its apparent KD of MS2 coat protein is greater than or equal to 70 nM.
### Response Criterion not met

* * *

test system: MS2 coat protein; test: apparent KD of MS2 coat protein; designed switch direction (-1 OFF switch, 1 ON switch): -1; higher = weaker reporter binding; conditions: input ligand: FMN 200 uM
# Lookup of reported apparent KD of MS2 coat protein keyed by entry
API: value field is a number in nM; no unit string.

Would you please look over these solved cases?
MACROMOLECULE SEQUENCE	apparent KD of MS2 coat protein [nM]
UAAUUUUUAGUAAGGAUAUCGGUCCCAAGGGACAACGAGAAGGUACAUGAGGAUCACCCAUGUGACGAAAGAAU [Mod of Zala 9 - Jieux - Brourd's Mod of Exclusion 4] (Eterna round: R97, puzzle: Brourd's mod of Exclusion 4)	35.6
ACGCAUUGCCUUUGGUAGUGCGUAACAUGAGGAUCACCCAUGUAGGAUAUGGUAGGCUUUGCUUACCAGAAGGACAUAAUAAUA [Mat - Exclusion NG 3 - Mod of JL - D1] (Eterna round: R96, puzzle: Exclusion NG 3)	54.2
UAAACCAGAGGAUAUGCGAAUAAAUAAAACUUUUUUUUUUAACAUGAGGAUCACCCAUGUAGAAGGCUGCAAUU [Ex2 #32] (Eterna round: R97, puzzle: Exclusion 2)	30.4
GCGCAAACGCCAAAAGGCGAAACAACAUGAGGAUCACCCAUGUAGGAUAUCGAUUGCUUUGCAGUCGAGAAGGACGUAAUGCGC [JL ENG3 3.80 Mod 5] (Eterna round: R96, puzzle: Exclusion NG 3)	12.7

### Prompt Return apparent KD of MS2 coat protein (reported value) for this sequence: GGGAAGGGAGGAUAUGAGGGAGAGAACAUGAGGAUCACCCAUGUGAGACCUCAGGAUCGAUCAGAAGGCCCGAUCC [AK-MS2ROC-r4-exclusion5-14] (Eterna round: R97, puzzle: Exclusion 5)
### Response 677

### Prompt Return apparent KD of MS2 coat protein (reported value) for this sequence: GAAAGAGUUCAGGAUAUCAGAGUCCAGCGACACUGAGAAGGGAAAACAUGAGGAUCACCCAUGUGGUCCUAAGC [Eternabot (L2) Solution 80] (Eterna round: R97, puzzle: Exclusion 6)
### Response 348

### Prompt Return apparent KD of MS2 coat protein (reported value) for this sequence: GUCGUGUUAGGAUAUGGCGGCGGCGGCGAAAGUUGUUGUUGUUAGAAGGAACAUGAGGAUCACCCAUGUAUGAC [-26 -25.5 kcal, A 24%] (Eterna round: R97, puzzle: Exclusion 4)
### Response 104

### Prompt Return apparent KD of MS2 coat protein (reported value) for this sequence: AAACACUGAGGAUAUGCGUAACAACAAAGCCUCACGUGCCAACAUGAGGAUCACCCAUGUAGAAGGCAGUCCAA [Mod R3 Insanara 17 - Jieux - Exclusion 2] (Eterna round: R97, puzzle: Exclusion 2)
### Response 25.2

### Prompt Return apparent KD of MS2 coat protein (reported value) for this sequence: GGUACUCAAAGAGUACCAAUACGAACAUGAGGAUCACCCAUGUAGGAUAUGCUACUCAAAGAGUAGCAGAAGGAUAUGAUCGAU [Far Half Aptamer v14] (Eterna round: R96, puzzle: Exclusion NG 3)
### Response 45.6

### Prompt Return apparent KD of MS2 coat protein (reported value) for this sequence: CGGUGCUCGUGGAAACAUGAGGAUCACCCAUGUAGAGUUAGCGAGGAUAUCGGUAACACACAUCACGAGAAGGCGCGAACCUGU [Ex NG3 #6] (Eterna round: R96, puzzle: Exclusion NG 3)
### Response 31.7

### Prompt Return apparent KD of MS2 coat protein (reported value) for this sequence: GGACAUAAAGUCAGGAUAUUAAGGCGACCACGCGAUGAGAAGGGACAUGAGGAUCACCCAUGUGAUUCUCAUCA [Ingebive] (Eterna round: R97, puzzle: Brourd's mod of Exclusion 4)
### Response 74.1

### Prompt Return apparent KD of MS2 coat protein (reported value) for this sequence: UAAAGUAUAUAGGAUAUCUAGCUGGAAACAGCUAGAGAAGGAUGUACAUGAGGAUCACCCAUGUAAAUCGUGAA [Ex6/13-A1] (Eterna round: R97, puzzle: Exclusion 6)
### Response 16.2

### Prompt Return apparent KD of MS2 coat protein (reported value) for this sequence: CUGUGUAGACAGGAUAUGCUGUACAAAAGUACAGCAGAAGGGUCUACAUGAGGAUCACCCAUGUGUACCUCAUG [)mei Ex6 B26] (Eterna round: R97, puzzle: Exclusion 6)
### Response 21.2

### Prompt Return apparent KD of MS2 coat protein (reported value) for this sequence: GAUUUUCAUGUAGGAUAUUCCACACAACAACUGGGAGAAGGACAUGAGGAUCACCCAUGUCCUACAACAACUUCAACAAACACA [Weak Sauce] (Eterna round: R96, puzzle: Exclusion NG 1)
### Response 15.8

* * *

system: K4 kissing-loop RNA reporter; assay: apparent KD of K4 kissing-loop reporter; higher = weaker reporter binding; details: Eterna round: R107; input ligand: arginine 13.2 mM;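 note: bound reporter read as fluorescence of individual clusters on recovered sequencing chips by microscopy, with normalized cluster intensities fitted with a binding model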
ATTRIBUTE MEASURED: apparent KD of K4 kissing-loop reporter (nM)
API: value field is a number in nM; no unit string.

Would you please look over these solved cases?
MACROMOLECULE SEQUENCE	apparent KD of K4 kissing-loop reporter / nM
AGUGAUGUUUCUUUUAAGAGUGAUGUUUUUCGAGGACCGGUACGGCCGCCACUCGAGUGAUGAGUGCGUCGUUGUGGUGAUUAGU [#13 K4 Tryptophan A Exclusion]	281
AACUAUUAAUGAAUUACAUUUUAUUUUUCUCGAGGACCGGUACGGCCGCCACUCGUACUAUAGUGAUGUUAUAGAUAAGUCCUAA [JR_ExcTryptoA_Sub021]	184
UGUCAUUGGUCUGAUACCAGUUGAUAAACUGGAGUGAUGUUCCAAGACGAGAAACUCGACAACCCUUGGCAGCAGACCGAUGACU [TheoBS 16 #SwitchBubble 13 #StaticStem]	295
GGGAGUAGUGCGGCCGCCACUGAGAAAGAAGAAGAAUAUAGUGAUGUUAUAUAGGAAAGGAAGAACAGGACCGGGCAUUAGAUUU [SSTRyptB.F]	220
UGUAUGUGAUUUGAUACCAGACCAGCUGGUGGUAUAUGAGUGAUGUUCAUGUUGGUUUGGGUCCCUUGGCAGCAAAUCGCAUACU [KL-SSTheoB10]	183

### Prompt Return apparent KD of K4 kissing-loop reporter (reported value) for this sequence: GGCCCGGGCGCGGCCGCCACUCCCUCGUACCGAAAGGUAUGAUACCGAGUGAUGUUCGGUUGGAGGAGGACCGGGCGCCCGGGCC [#2 Exclusion - Tryptophan B Attempt #4 (HarryS)]
### Response 129

### Prompt Return apparent KD of K4 kissing-loop reporter (reported value) for this sequence: ACAUGUUCCAGUGAUGUUGGCGUACGUGAUACCAGACGAAUAAAAGUCCCUUGGCAGCACAAAUAAGCCAAGAUAGGUGAAUGAU [#04 K4 Theophylline A Exclusion]
### Response 272

### Prompt Return apparent KD of K4 kissing-loop reporter (reported value) for this sequence: AGGGACUCUUCGGAGUCCCGGUUAAGGGAUACCAGUGAUGUUGGUCACCCUUGGCAGCCCAGAAACCAAGCCACCAAAGGUGGCA [Omei KL Theo A Exc A v2]
### Response 127

### Prompt Return apparent KD of K4 kissing-loop reporter (reported value) for this sequence: GCCAGUGAUGUUGGCGAACCGACGCAUGCAGAGGAUAUUCGAUCUUGAAGAAGGCUGCAGCGUCAUCAUACGCAGUGAUGUUGCG [Same State FMN A GF 27]
### Response 156

### Prompt Return apparent KD of K4 kissing-loop reporter (reported value) for this sequence: GCAGUGAUGUUGCGCGGGUACGGUGGAGUGCGAGGACCGGUACGGCCGCCACUCGUACGGAACUGGCUAAUAUAUGGAUAGGUGA [VI]
### Response 291

### Prompt Return apparent KD of K4 kissing-loop reporter (reported value) for this sequence: GCGGCCCAGCCGGAUACCAGUGACCCGCUGGGAACCGCGGGCCCAGAGUGAUGUUCGGGACACCCUUGGCAGCCGCCUGGGUCGC [#2 Same State - Theophylline B Attempt #18 (HarryS)]
### Response 274
